# IC50 listing for each entry below
- Tested on: U937 cells
- experimental-protocol: Cellular assay in U937 cells, TNFα/zVAD.fmk-induced cell death (necroptosis), MTS readout
- Assay type: cell-based
- stated-conditions: Homo sapiens, U-937; U937 cells, 100 ng/ml TNFα + 50 μM zVAD.fmk, overnight (18 to 24 hrs); read-out: U937 IC50
State just the number; it will be interpreted in nM.

Answered examples (4):
O=C(C1CCN(c2nccc(-c3ccccc3)n2)CC1)N1N=CCC1c1ccccc1 (centres unmarked) [Comparator Example A, reference compound]	8
Cc1nnc(-c2cc(N3CCC(C(=O)N4OCC[C@H]4c4cc(F)cc(C#N)c4)CC3)ncn2)o1 [Comparator Example E, reference compound]	197
O=C(C1CCN(c2nccc(-c3ccccc3)n2)CC1)N1OCC[C@H]1c1ccccc1 [Comparator Example B, reference compound]	9.4
Cc1nnc(-c2cc(N3CCC(C(=O)N4OCC[C@H]4c4ccccc4)CC3)ncn2)o1 [Comparator Example D, reference compound]	92

Let's switch to this compound now.
State its IC50 for this compound: Cc1nnc(-c2cc(N3CCC(C(=O)N4N=CC[C@H]4c4ccccc4)CC3)ncn2)o1 [Comparator Example C, reference compound] 59

* * *

- System: U937 cells
- experimental-protocol: Cellular assay in U937 cells, TNFα/zVAD.fmk-induced cell death (necroptosis), MTS readout
- Type: cell-based
- stated-conditions: Homo sapiens, U-937; own data; read-out: IC50 (U937)
reported-metric: pIC50
Lab note: report pIC50 as minus log10 of the concentration in molar units, number only.

Cc1c(F)cc([C@@H]2CCON2C(=O)C2CCN(c3cc(-n4cc(C5CC5)nc4C)ncn3)CC2)cc1C#N	9.00

State its pIC50 for this molecule: Cc1nnc(-c2cc(N3CCC(C(=O)N4OCC[C@H]4c4ccccc4)CC3)ncn2)o1 [Comparator Example D, reference compound] 7.04

State its pIC50 for this molecule: O=C(C1CCN(c2nccc(-c3ccccc3)n2)CC1)N1OCC[C@H]1c1ccccc1 [Comparator Example B, reference compound] 8.05

State its pIC50 for this molecule: Cc1nnc(-c2cc(N3CCC(C(=O)N4OCC[C@H]4c4cc(F)cc(C#N)c4)CC3)ncn2)o1 [Comparator Example E, reference compound] 6.71

State its pIC50 for this molecule: O=C(C1CCN(c2nccc(-c3ccccc3)n2)CC1)N1N=CCC1c1ccccc1 (centres unmarked) [Comparator Example A, reference compound] 8.10
